- experimental.parameters: in isopropanol, 308.15 K
reported.property: solubility (mole fraction)
Output: the number by itself.

Q) If you can, please state the reported solubility (mole fraction) value of O=c1[nH]c(=O)n(C2CCCO2)cc1F (stereo unspecified) .
A) 0.00444

====

- experimental.parameters: in methanol, 288.15 K
reported.property: solubility (mole fraction)

Q) If you can, please state the reported solubility (mole fraction) value of O=c1[nH]c(=O)n(C2CCCO2)cc1F (stereo unspecified) .
A) 0.00592

====

- experimental.parameters: in methanol, 293.15 K
reported.property: solubility (mole fraction)
Output: the number by itself.

Q) If you can, please state the reported solubility (mole fraction) value of O=c1[nH]c(=O)n(C2CCCO2)cc1F (stereo unspecified) .
A) 0.00692
